log10(IC50) reference
# SYSTEM NAME: human Kv1.5 (Homo sapiens)
# Construct: expressed in transfected cells
# Sequence (P22460 whole entry): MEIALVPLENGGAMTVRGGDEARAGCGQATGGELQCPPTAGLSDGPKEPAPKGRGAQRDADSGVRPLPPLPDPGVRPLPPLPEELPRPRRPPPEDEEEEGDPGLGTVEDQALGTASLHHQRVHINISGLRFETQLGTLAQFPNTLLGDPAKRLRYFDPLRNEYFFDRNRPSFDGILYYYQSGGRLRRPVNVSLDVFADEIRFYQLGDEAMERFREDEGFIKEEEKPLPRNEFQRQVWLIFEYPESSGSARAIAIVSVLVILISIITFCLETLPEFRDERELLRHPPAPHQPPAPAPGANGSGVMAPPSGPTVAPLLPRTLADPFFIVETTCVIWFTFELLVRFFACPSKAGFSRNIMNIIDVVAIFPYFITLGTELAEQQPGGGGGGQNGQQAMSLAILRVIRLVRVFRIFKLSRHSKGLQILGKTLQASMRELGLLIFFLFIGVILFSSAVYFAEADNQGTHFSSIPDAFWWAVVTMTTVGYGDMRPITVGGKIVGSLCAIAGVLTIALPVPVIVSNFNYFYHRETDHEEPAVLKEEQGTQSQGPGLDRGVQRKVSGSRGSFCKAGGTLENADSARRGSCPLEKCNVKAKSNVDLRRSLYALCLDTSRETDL
# ASSAY NOTES: 86Rb efflux assay
# Assay type: cell-based
# CONDITION PARAMETERS: inhibition of 86Rb efflux through Kv1.5 potassium channels expressed in CHO cells; 70 mM KCl depolarization; read-out: IC50 (μM) (flux)
Each number you see is log10 of IC50, and the unit inside the log is µM.

COc1ccc(CCN2C(=O)CCSC2c2ccc3c(c2)OCO3)cc1 (stereo not drawn) ... 0.18
COc1ccc(CCN2C(=O)CSC2c2ccc(C)c(C)c2)cc1 (stereo not drawn) ... -0.05
CCCCCCN1C(=O)CSC1c1cccc(OC)c1 (stereo not drawn) ... 1.02
COc1ccc(CCN2C(=O)CCSC2c2ccc(C)c(C)c2)cc1 (stereo not drawn) ... 0.18
Cc1ccc(C2SCC(=O)N2CCCCc2ccccc2)cc1C (stereo not drawn) ... 0.84

Per the reported human Kv1.5 (Homo sapiens) data, COc1ccc(CCN2C(=O)CSC2c2ccc(OC)c(OC)c2)cc1 (stereo not drawn) has log10(IC50) of 1.47

Per the reported human Kv1.5 (Homo sapiens) data, CCc1ccc(C2SCC(=O)N2CCc2ccc(OC)cc2)s1 (stereo not drawn) has log10(IC50) of 0.11

Per the reported human Kv1.5 (Homo sapiens) data, COc1ccc(CCN2C(=O)CSC2c2ccc(F)c(F)c2)cc1 (stereo not drawn) has log10(IC50) of 1.16

Per the reported human Kv1.5 (Homo sapiens) data, Cc1ccc(C2SCC(=O)N2CC#Cc2ccccc2)cc1C (stereo not drawn) has log10(IC50) of 0.67

----------
# SYSTEM NAME: human Kv1.5 (Homo sapiens)
# Construct: expressed in transfected cells
# ASSAY NOTES: 86Rb efflux assay
# Format: cell-based
# CONDITION PARAMETERS: inhibition of 86Rb efflux through Kv1.5 potassium channels expressed in CHO cells; 70 mM KCl depolarization; read-out: IC50 (μM) (flux)
RECORDED METRIC: IC50

Example results:
COc1ccc(CCN2C(=O)CSC2c2cccc(OC)c2)cc1 (stereo not drawn) ... 3.9 µM
COc1ccc(CN2C(=O)CSC2c2cccc(OC)c2)cc1 (stereo not drawn) ... 30 µM

Field: next compound
Per the records, this compound ( COc1cccc(CCN2C(=O)CSC2c2ccc3c(c2)OCO3)c1 (stereo not drawn) ) has IC50 equal to 9.9 µM
